- System: E. coli TESEC Mtb DapB
- Test Summary: growth (OD600 after 10 h); higher = more growth (less inhibition)
- Experimental Parameters: arabinose induction (level): High; compound 0.1 mM; raw OD600 reference: median of DMSO wells […], cell-free background 0.041
Record TRUE whenever growth is at 0.2 or higher; record FALSE when lower.

# Molecule, Class Assignment
rows = [
    ("COc1ccccc1O [Guaiacol]", "FALSE"),
    ("CC(=O)S[C@@H]1CC2=CC(=O)CC[C@]2(C)[C@H]2CC[C@@]3(C)[C@@H](CC[C@@]34CCC(=O)O4)[C@H]12 [Spironolactone]", "FALSE"),
    ("CC(=O)Oc1cc(C(C)C)c(OCCN(C)C)cc1C [Moxisylyte hydrochoride]", "FALSE"),
    ("CC1(C)NC(=O)N(c2ccc([N+](=O)[O-])c(C(F)(F)F)c2)C1=O [Nilutamide]", "FALSE"),
    ("C[C@]12C[C@H](O)[C@H]3[C@@H](CCC4=CC(=O)CC[C@@]43C)[C@@H]1CC[C@@H]2C(=O)CO [Corticosterone]", "FALSE"),
]

For this molecule, is measured growth 0.2 or higher? CC=C(C)C(=O)OC1C(OC(C)=O)C2(CO)C(O)CC3(C)C(=CCC4C5(C)CCC(OC6OC(C(=O)O)C(OC7OC(CO)C(O)C(O)C7O)C(O)C6OC6OC(CO)C(O)C(O)C6O)C(C)(CO)C5CCC43C)C2CC1(C)C (stereo not drawn) [Beta-Escin]
TRUE

* * *

- Tested on: E. coli TESEC Mtb Alr
- Test Summary: growth (OD600 after 10 h); higher = more growth (less inhibition)
- Experimental Parameters: arabinose 10000000 nM; compound 0.1 mM; raw OD600 reference: median of DMSO wells […], cell-free background 0.052
Where a name gives a salt, the structure may show the parent alone.
Record condition met whenever growth is at 0.3 or higher; record condition not met when lower.

# Compound, Class Assignment
measured = [
    ("CCOC1O[C@H]([C@@H](COCc2ccccc2)OCc2ccccc2)[C@H](OCc2ccccc2)[C@H]1O (stereo not given in full) [Tribenoside]", "condition not met"),
    ("CCN[C@H]1CN(CCCOC)S(=O)(=O)c2sc(S(N)(=O)=O)cc21 [Brinzolamide]", "condition met"),
    ("CC1(C)S[C@@H]2[C@H](NC(=O)[C@H](C(=O)O)c3ccsc3)C(=O)N2[C@H]1C(=O)O [Ticarcillin sodium]", "condition met"),
]

For this compound, is measured growth 0.3 or higher? COC(=O)[C@@H]1[C@H]2C[C@H]3c4[nH]c5ccccc5c4CCN3C[C@@H]2CC[C@@H]1O [Yohimbine hydrochloride]
condition met

For this compound, is measured growth 0.3 or higher? `Nc1nc(=O)[nH]cc1F`
condition met

For this compound, is measured growth 0.3 or higher? CCN1CCC[C@H]1CNC(=O)c1c(O)c(Cl)cc(Cl)c1OC [Raclopride]
condition not met

For this compound, is measured growth 0.3 or higher? O=C(CCNNC(=O)c1ccncc1)NCc1ccccc1 [Nialamide]
condition met

For this compound, is measured growth 0.3 or higher? COc1cc(N)c(Cl)cc1C(=O)NC1CCN(Cc2ccccc2)CC1 [Clebopride maleate]
condition met

For this compound, is measured growth 0.3 or higher? `CCN(CC)C(=S)SSC(=S)N(CC)CC`
condition not met

For this compound, is measured growth 0.3 or higher? `O=C(O)c1cc(/N=N/c2ccc(S(=O)(=O)Nc3ccccn3)cc2)ccc1O`
condition met

For this compound, is measured growth 0.3 or higher? Cc1cc(CC(=O)O)n(C)c1C(=O)c1ccc(Cl)cc1 [Zomepirac sodium salt]
condition met

For this compound, is measured growth 0.3 or higher? COc1cc(C(=O)NCc2ccc(OCCN(C)C)cc2)cc(OC)c1OC [Trimethobenzamide hydrochloride]
condition met

Data credit: the supplement of paper PMC9262897
